These data points were gathered from ChEMBL document CHEMBL4229482.

- SUBJECT OF TEST: Acetyl-CoA carboxylase 1 (Homo sapiens)
- ASSAY METHOD TEXT: Inhibition of C-terminal His-tagged recombinant human ACC1 (1 to 2383 residues) expressed in Baculovirus infected Sf9 insect cells using acetyl CoA as substrate preincubated for 15 mins followed by substrate addition and measured after 60 mins by ADP-Glo assay
PROPERTY LABEL: pIC50
Expect pIC50 as a plain number equal to -log10 of the molar concentration.

Returns the measured pIC50 for the input molecule. Input: O=C(c1ccc2[nH]c(-c3ccncc3)nc2c1)N1CCC2(CC1)CC(=O)N(c1ccc(C(F)(F)F)cc1)C2
5.58

Returns the measured pIC50 for the input molecule. Input: COC(=O)c1ccc(N2CC3(CCN(C(=O)c4cc(C)c5[nH]ncc5c4)CC3)CC2=O)cc1
5.65

Returns the measured pIC50 for the input molecule. Input: O=C(c1ccc2cc[nH]c2c1)N1CCC2(CC1)CC(=O)N(c1ccc(C(F)(F)F)cc1)C2
5.30

Returns the measured pIC50 for the input molecule. Input: O=C(c1ccc2cn[nH]c2c1)N1CCC2(CC1)CC(=O)N(c1ccc(C(F)(F)F)cc1)C2
5.33

Returns the measured pIC50 for the input molecule. Input: O=C(c1ccc2cccnc2c1)N1CCC2(CC1)CC(=O)N(c1ccc(C(F)(F)F)cc1)C2
5.31

Returns the measured pIC50 for the input molecule. Input: Cc1cc(C(=O)N2CCC3(CC2)CC(=O)N(c2ccc(C#N)cc2F)C3)cc2cn[nH]c12
5.45

Returns the measured pIC50 for the input molecule. Input: Cc1cc(N2CC3(CCN(C(=O)c4cc(C)c5[nH]ncc5c4)CC3)CC2=O)ccc1C#N
5.70

Returns the measured pIC50 for the input molecule. Input: O=C(c1ccc2[nH]c3c(c2c1)CCC3)N1CCC2(CC1)CC(=O)N(c1ccc(C(F)(F)F)cc1)C2
5.37

Returns the measured pIC50 for the input molecule. Input: Cc1nc2cc(C(=O)N3CCC4(CC3)CC(=O)N(c3ccc(C(F)(F)F)cc3)C4)ccc2[nH]1
5.65

Returns the measured pIC50 for the input molecule. Input: Cc1cc(C(=O)N2CCC3(CC2)CC(=O)c2nn(C(C)(C)C)cc2O3)cc2cn[nH]c12
7.49

Returns the measured pIC50 for the input molecule. Input: O=C(c1ccc2[nH]c(-c3ccco3)nc2c1)N1CCC2(CC1)CC(=O)N(c1ccc(C(F)(F)F)cc1)C2
5.98

Returns the measured pIC50 for the input molecule. Input: O=C(c1ccc2[nH]c3c(c2c1)CCCC3)N1CCC2(CC1)CC(=O)N(c1ccc(C(F)(F)F)cc1)C2
5.71

Returns the measured pIC50 for the input molecule. Input: Cc1cc(C(=O)N2CCC3(CC2)CC(=O)N(c2ccc(C(F)(F)F)cc2)C3)cc2cn[nH]c12
5.92

Returns the measured pIC50 for the input molecule. Input: O=C(c1ccc2[nH]c(-c3ccccc3)nc2c1)N1CCC2(CC1)CC(=O)N(c1ccc(C(F)(F)F)cc1)C2
6.28

----------
- System: SW-620
- ASSAY METHOD TEXT: cells
- APPLIED CONDITIONS: Homo sapiens, SW-620, 48 h
- Description: Antiproliferative activity against human SW620 cells after 48 hrs by MTT assay
PROPERTY LABEL: IC50 (µM)
The reply should be a number in µM, with the unit left off.

Returns the measured IC50 for the input molecule. Input: O=C(c1ccc2[nH]c(-c3ccco3)nc2c1)N1CCC2(CC1)CC(=O)N(c1ccc(C(F)(F)F)cc1)C2
3.26

Returns the measured IC50 for the input molecule. Input: CCCc1nc2cc(C(=O)N3CCC4(CC3)CC(=O)N(c3ccc(C(F)(F)F)cc3)C4)cc(C)c2[nH]1
1.82

Returns the measured IC50 for the input molecule. Input: O=C(c1ccc2[nH]c3c(c2c1)CCCC3)N1CCC2(CC1)CC(=O)N(c1ccc(C(F)(F)F)cc1)C2
4.74

----------
Please respond with reported IC50 for every item in the list.
- Test system: HCT-116
- ASSAY METHOD TEXT: cells
- APPLIED CONDITIONS: Homo sapiens, HCT-116, 48 h

Returns the measured IC50 for the input molecule. Input: COC(=O)c1ccc(N2CC3(CCN(C(=O)c4cc(C)c5[nH]ncc5c4)CC3)CC2=O)cc1
> 10 µM

Returns the measured IC50 for the input molecule. Input: O=C(c1ccc2[nH]c(-c3ccccc3)nc2c1)N1CCC2(CC1)CC(=O)N(c1ccc(C(F)(F)F)cc1)C2
1.22 µM

Returns the measured IC50 for the input molecule. Input: CC(C)c1ccc(-c2nc3cc(C(=O)N4CCC5(CC4)CC(=O)N(c4ccc(C(F)(F)F)cc4)C5)ccc3[nH]2)cc1
6.21 µM

Returns the measured IC50 for the input molecule. Input: CCCc1nc2cc(C(=O)N3CCC4(CC3)CC(=O)N(c3ccc(C(F)(F)F)cc3)C4)cc(C)c2[nH]1
4.21 µM

Returns the measured IC50 for the input molecule. Input: Cc1cc(C(=O)N2CCC3(CC2)CC(=O)c2nn(C(C)(C)C)cc2O3)cc2cn[nH]c12
2.43 µM

Returns the measured IC50 for the input molecule. Input: O=C(c1ccc2[nH]c(-c3ccncc3)nc2c1)N1CCC2(CC1)CC(=O)N(c1ccc(C(F)(F)F)cc1)C2
7.64 µM

Returns the measured IC50 for the input molecule. Input: O=C(c1ccc2[nH]c3c(c2c1)CCCC3)N1CCC2(CC1)CC(=O)N(c1ccc(C(F)(F)F)cc1)C2
8.67 µM

Returns the measured IC50 for the input molecule. Input: O=C(c1ccc2[nH]c(-c3ccco3)nc2c1)N1CCC2(CC1)CC(=O)N(c1ccc(C(F)(F)F)cc1)C2
> 10 µM

Returns the measured IC50 for the input molecule. Input: Cc1cc(C(=O)N2CCC3(CC2)CC(=O)N(c2ccc(C(F)(F)F)cc2)C3)cc2cn[nH]c12
8.67 µM

----------
- SUBJECT OF TEST: Acetyl-CoA carboxylase 1 (Homo sapiens, UniProt Q13085)
- ASSAY METHOD TEXT: Inhibition of C-terminal His-tagged recombinant human ACC1 (1 to 2383 residues) expressed in Baculovirus infected Sf9 insect cells using acetyl CoA as substrate preincubated for 15 mins followed by substrate addition and measured after 60 mins by ADP-Glo assay
Please respond with reported IC50 for every item in the list.
The reply should be a number in nM, with the unit left off.

Returns the measured IC50 for the input compound. Input: Cc1cc(C(=O)N2CCC3(CC2)CC(=O)N(c2ccc(C(=O)O)cc2)C3)cc2cn[nH]c12
2790

Returns the measured IC50 for the input compound. Input: CCCc1nc2cc(C(=O)N3CCC4(CC3)CC(=O)N(c3ccc(C(F)(F)F)cc3)C4)cc(C)c2[nH]1
1690

Returns the measured IC50 for the input compound. Input: CC(C)c1ccc(-c2nc3cc(C(=O)N4CCC5(CC4)CC(=O)N(c4ccc(C(F)(F)F)cc4)C5)ccc3[nH]2)cc1
1150

Returns the measured IC50 for the input compound. Input: Cc1cc(C(=O)N2CCC3(CC2)CC(=O)N(c2ccc(C#N)cc2)C3)cc2cn[nH]c12
3990

----------
- SUBJECT OF TEST: Acetyl-CoA carboxylase 2 (Homo sapiens, UniProt O00763)
- Sequence (O00763 whole entry): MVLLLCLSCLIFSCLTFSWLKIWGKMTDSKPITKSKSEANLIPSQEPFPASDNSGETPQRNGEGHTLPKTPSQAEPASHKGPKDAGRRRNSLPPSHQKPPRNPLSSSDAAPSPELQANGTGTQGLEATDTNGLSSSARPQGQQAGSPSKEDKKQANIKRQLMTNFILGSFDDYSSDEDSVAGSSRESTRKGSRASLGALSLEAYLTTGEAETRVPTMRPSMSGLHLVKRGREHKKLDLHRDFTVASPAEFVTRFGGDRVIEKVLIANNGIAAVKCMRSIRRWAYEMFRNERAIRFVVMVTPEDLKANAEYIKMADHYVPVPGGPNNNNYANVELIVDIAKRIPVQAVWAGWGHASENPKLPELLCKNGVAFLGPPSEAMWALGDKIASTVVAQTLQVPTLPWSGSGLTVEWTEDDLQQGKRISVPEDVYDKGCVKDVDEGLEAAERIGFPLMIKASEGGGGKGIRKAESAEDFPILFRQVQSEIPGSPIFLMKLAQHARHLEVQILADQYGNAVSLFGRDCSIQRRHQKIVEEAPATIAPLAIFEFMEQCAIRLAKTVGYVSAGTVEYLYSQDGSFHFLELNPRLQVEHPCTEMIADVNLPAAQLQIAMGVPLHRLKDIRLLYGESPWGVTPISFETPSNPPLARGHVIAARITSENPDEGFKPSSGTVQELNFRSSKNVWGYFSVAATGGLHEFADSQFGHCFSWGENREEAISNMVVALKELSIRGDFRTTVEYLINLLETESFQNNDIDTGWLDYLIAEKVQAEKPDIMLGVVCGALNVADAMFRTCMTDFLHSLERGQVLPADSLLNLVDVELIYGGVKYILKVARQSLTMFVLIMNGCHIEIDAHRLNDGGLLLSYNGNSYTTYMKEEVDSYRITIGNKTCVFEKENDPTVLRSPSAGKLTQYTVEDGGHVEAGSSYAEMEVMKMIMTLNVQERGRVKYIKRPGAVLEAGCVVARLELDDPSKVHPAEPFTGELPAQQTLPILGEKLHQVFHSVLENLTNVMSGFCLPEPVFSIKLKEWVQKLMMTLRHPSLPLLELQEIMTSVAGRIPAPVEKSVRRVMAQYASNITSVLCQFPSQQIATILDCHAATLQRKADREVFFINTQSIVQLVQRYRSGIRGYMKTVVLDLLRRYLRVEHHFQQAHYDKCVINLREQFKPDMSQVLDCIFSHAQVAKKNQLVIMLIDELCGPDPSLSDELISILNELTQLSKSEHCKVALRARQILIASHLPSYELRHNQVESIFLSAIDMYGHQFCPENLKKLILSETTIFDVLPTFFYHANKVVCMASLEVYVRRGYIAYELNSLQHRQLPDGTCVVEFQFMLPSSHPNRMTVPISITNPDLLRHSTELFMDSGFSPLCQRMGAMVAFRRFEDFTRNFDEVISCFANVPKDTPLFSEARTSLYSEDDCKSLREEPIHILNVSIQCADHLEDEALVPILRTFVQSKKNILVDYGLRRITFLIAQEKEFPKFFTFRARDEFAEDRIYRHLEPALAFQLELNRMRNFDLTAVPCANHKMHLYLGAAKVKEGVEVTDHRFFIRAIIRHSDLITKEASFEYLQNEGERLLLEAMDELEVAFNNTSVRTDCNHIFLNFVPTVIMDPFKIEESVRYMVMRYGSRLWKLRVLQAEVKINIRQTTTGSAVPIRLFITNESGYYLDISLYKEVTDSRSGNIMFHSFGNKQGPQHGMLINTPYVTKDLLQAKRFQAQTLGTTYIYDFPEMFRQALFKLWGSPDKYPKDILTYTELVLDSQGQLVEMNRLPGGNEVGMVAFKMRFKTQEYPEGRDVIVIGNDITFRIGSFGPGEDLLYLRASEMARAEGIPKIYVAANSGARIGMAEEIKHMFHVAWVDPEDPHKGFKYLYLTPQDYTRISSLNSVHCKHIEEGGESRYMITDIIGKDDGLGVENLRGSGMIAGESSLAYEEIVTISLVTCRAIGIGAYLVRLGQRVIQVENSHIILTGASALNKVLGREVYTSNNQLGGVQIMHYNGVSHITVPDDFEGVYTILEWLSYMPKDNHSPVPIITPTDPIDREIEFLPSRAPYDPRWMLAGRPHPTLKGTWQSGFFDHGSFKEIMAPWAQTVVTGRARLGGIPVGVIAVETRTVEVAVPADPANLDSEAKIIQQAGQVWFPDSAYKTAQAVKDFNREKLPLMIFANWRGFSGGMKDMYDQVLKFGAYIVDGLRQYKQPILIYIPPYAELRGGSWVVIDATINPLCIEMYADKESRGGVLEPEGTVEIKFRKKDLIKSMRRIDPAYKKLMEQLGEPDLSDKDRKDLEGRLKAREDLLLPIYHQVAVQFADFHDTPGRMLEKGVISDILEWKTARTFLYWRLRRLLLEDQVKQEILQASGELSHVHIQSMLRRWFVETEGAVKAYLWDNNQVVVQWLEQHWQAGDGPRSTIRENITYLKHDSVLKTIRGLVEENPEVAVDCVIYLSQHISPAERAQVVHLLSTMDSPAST
- ASSAY METHOD TEXT: Inhibition of C-terminal His-tagged full length human ACC2 expressed in Baculovirus infected Sf9 insect cells using acetyl CoA as substrate preincubated for 15 mins followed by substrate addition and measured after 60 mins by ADP-Glo assay
Please respond with reported IC50 for every item in the list.

Returns the measured IC50 for the input compound. Input: O=C(c1ccc2cccnc2c1)N1CCC2(CC1)CC(=O)N(c1ccc(C(F)(F)F)cc1)C2
> 5000 nM

Returns the measured IC50 for the input compound. Input: O=C(c1ccc2[nH]c3c(c2c1)CCC3)N1CCC2(CC1)CC(=O)N(c1ccc(C(F)(F)F)cc1)C2
3480 nM

Returns the measured IC50 for the input compound. Input: Cc1cc(C(=O)N2CCC3(CC2)CC(=O)N(c2ccc(C(F)(F)F)cc2)C3)cc2cn[nH]c12
944 nM

Returns the measured IC50 for the input compound. Input: O=C(c1ccc2cn[nH]c2c1)N1CCC2(CC1)CC(=O)N(c1ccc(C(F)(F)F)cc1)C2
2740 nM

Returns the measured IC50 for the input compound. Input: COC(=O)c1ccc(N2CC3(CCN(C(=O)c4cc(C)c5[nH]ncc5c4)CC3)CC2=O)cc1
1880 nM

Returns the measured IC50 for the input compound. Input: O=C(c1ccc2ncccc2c1)N1CCC2(CC1)CC(=O)N(c1ccc(C(F)(F)F)cc1)C2
> 5000 nM

Returns the measured IC50 for the input compound. Input: Cc1cc(C(=O)N2CCC3(CC2)CC(=O)N(c2ccc(C#N)cc2F)C3)cc2cn[nH]c12
> 5000 nM

----------
Please respond with reported pIC50 for every item in the list.
- SUBJECT OF TEST: UniProt:Q13085
- ASSAY METHOD TEXT: Inhibition of C-terminal His-tagged recombinant human ACC1 (1 to 2383 residues) expressed in Baculovirus infected Sf9 insect cells using acetyl CoA as substrate preincubated for 15 mins followed by substrate addition and measured after 60 mins by ADP-Glo assay
pIC50: −log10 of the molar value.

Returns the measured pIC50 for the input compound. Input: O=C(c1ccc2[nH]ccc2c1)N1CCC2(CC1)CC(=O)N(c1ccc(C(F)(F)F)cc1)C2
< 5.30

Returns the measured pIC50 for the input compound. Input: O=C(c1ccc2ncccc2c1)N1CCC2(CC1)CC(=O)N(c1ccc(C(F)(F)F)cc1)C2
< 5.30

Returns the measured pIC50 for the input compound. Input: O=C(c1cnc2ccccc2c1)N1CCC2(CC1)CC(=O)N(c1ccc(C(F)(F)F)cc1)C2
< 5.30
